Task for the reader: assign each of the following compounds its reported log10(TGI).
Tested on: SF-539 CNS
Assay procedure: NCI tumour cell line growth inhibition, 48 h
Note the log scale: values are log10 of TGI expressed in µM.

Sample records with log10(TGI):
| Compound | Experimental result |
| --- | --- |
| CC(C)(C)c1cc(C(=O)/C=C/c2ccc3c(c2)OCO3)cc(C(C)(C)C)c1O | 1.30 |
| Cc1c2c(OCC3CCCCO3)nn(C)c(=O)c2c(C)n1-c1ccccc1 (centres undefined) | 1.57 |
| NS(=O)(=O)c1cccc(NC(=S)NC(=O)Nc2ccc(Cl)c(Cl)c2)c1 | 1.58 |
| Cc1ccc(NC(=O)c2cc(S(=O)(=O)N3C(=O)NC(=O)NS3(=O)=O)c(S)cc2Cl)cc1 | 1.83 |
| CCOC(=O)C#Cc1ccccc1 | 1.29 |
| COc1cc2c(c(O)c1OC)C(=O)C(Cc1ccc(O)cc1)CO2 (centres undefined) | 1.62 |

Working through the 4 compounds below one at a time, give log10(TGI) for each.
1. COc1ccc(OC)c(Cn2cc3c(c2-c2ccccc2)CCc2cnoc2-3)c1
2. O=c1cc(/C=C/c2ccccc2)[nH]c2cc3c(cc12)OCO3
3. COc1ccc2[nH]c3c(c2c1)[C@H](C)C[C@@H]1C(=O)N(c2ccccc2)C(=O)[C@H]31
4. O=c1c2cc(Br)ccc2nc(CCl)n1-c1ccc(O)c([N+](=O)[O-])c1

Solution:
1.76
0.67
1.61
1.53

Working through the 5 compounds below one at a time, give log10(TGI) for each.
1. O=c1cc(-c2ccccc2)oc2c(-c3cc(Cl)cc4c(=O)cc(-c5ccccc5)oc34)cc(Cl)cc12
2. COc1ccc2c(c1)/C(=C/c1cc(OC)c(OC)c(OC)c1)C(=O)N2
3. O=C(Nc1ccc(Cl)c(Cl)c1)NS(=O)(=O)c1cnccc1Oc1ccc(F)cc1
4. C[C@H]1CCCC(O)C(O)[C@@H]2C[C@H](O[Si](C)(C)C(C)(C)C)C[C@H]2[C@H](O[Si](C)(C)C(C)(C)C)C(O)C(O)C(=O)O1 (some centres undefined)
5. CN1/C(=C\C=C\C2=[N+](C)c3ccccc3C2(C)C)C(C)(C)c2ccccc21

Solution:
[1.65, 1.29, 1.39, 1.49, 0.77]

Working through the 3 compounds below one at a time, give log10(TGI) for each.
1. CCC1=CC2CN(C1)Cc1c([nH]c3ccccc13)[C@@](C(=O)OC)(c1cc3c(cc1OC)N(C)[C@H]1[C@@](O)(C(=O)OC)[C@H](OC(C)=O)[C@]4(CC)C=CCN5CC[C@]31[C@@H]54)C2 (some centres undefined)
2. c1ccc2[nH]c(-c3ccc(Nc4nc(N5CCCCC5)nc(N5CCOCC5)n4)cc3)nc2c1
3. COc1ccc(CN2C3CC2CN(c2ccc(-c4cc(OCC(C)(C)O)cn5ncc(C#N)c45)cn2)C3)cn1

Solution:
[0.93, 0.76, 0.94]

* * *

Test system: 786-0 renal
Assay procedure: NCI tumour cell line growth inhibition, 48 h
Label true (1) when TGI is at or above 20 µM; otherwise label false (0).

These recorded examples may help you get a feel for the data.
| Compound | Discrete label |
| --- | --- |
| CC1(C)[C@H]2CC[C@@]13C(=O)N1C(=O)O[C@@H]([C@H]1Cl)C(Cl)(COCc1ccccc1)C(=O)OCCO[C@H]3C2 (stereo not given in full) | true (1) |
| CSc1nnc(COc2ccc(Cl)cc2)o1 | true (1) |
| CN(C)C(=O)O[C@H]1CN[C@H](C#Cc2cc3ncnc(Nc4ccc(OCc5cccc(F)c5)c(Cl)c4)c3s2)C1 | false (0) |
| CC(C)(Oc1ccc(/C=C/C(=O)c2ccc(Cl)cc2)cc1)C(=O)Nc1c(Cl)cccc1Cl | true (1) |
| O=C(c1ccncc1)C1C(=O)c2ccccc2C1C1(O)c2ccccc2CC1C(O)c1ccncc1 (stereo not given) | true (1) |
| C1=C\SS/C=C\SS/1 | true (1) |
| COc1ccc(OC)c(Cn2cc3c(c2-c2ccccc2)CCc2cnoc2-3)c1 | true (1) |
| O=c1[nH]c(Nc2cccc(CO)c2)nc2nc[nH]c12 | true (1) |
| O=c1cc(/C=C/c2ccccc2)[nH]c2cc3c(cc12)OCO3 | false (0) |

Now look at this one.
Exercise: Record O=C1NCN(c2ccccc2)C12CCN(CCCN1CCN(CCOC(c3ccc(F)cc3)c3ccc(F)cc3)CC1)CC2 ; criterion: TGI no lower than 20 µM. Met?
Solution: false (0)

* * *

Tested on: HT29 colon
Assay procedure: NCI tumour cell line growth inhibition, 48 h; in the data active = GI50 below about 0.43 µM; inactive = the rest
Write down the outcome that applies. Available outcomes: active, inactive

These recorded examples may help you get a feel for the data.
| Compound | Discrete label |
| --- | --- |
| Cc1ccc(NC(=O)c2cc(S(=O)(=O)N3C(=O)NC(=O)NS3(=O)=O)c(S)cc2Cl)cc1 | inactive |
| O=c1c(F)cn(Cc2ccccc2CCl)c(=O)n1Cc1ccccc1CCl | inactive |
| CCC1=CC2CN(C1)Cc1c([nH]c3ccccc13)[C@@](C(=O)OC)(c1cc3c(cc1OC)N(C)[C@H]1[C@@](O)(C(=O)OC)[C@H](OC(C)=O)[C@]4(CC)C=CCN5CC[C@]31[C@@H]54)C2 (stereo not given in full) | active |
| CCCCn1c(-c2ccc(C(=O)O/N=C(\N)c3ccc4c(c3)OCO4)cc2)nc(-c2ccccc2)c1-c1ccccc1 | inactive |
| COc1ccc(/C(=N\NC(=S)NN)C(c2ccc(OC)cc2)C2C(=O)Oc3ccccc32)cc1 (stereo not given) | inactive |
| COc1cc(NCCCCCCCNC(C)C)c2nccc(C)c2c1 | inactive |
| O=C(N[C@@H](C[Se][Se]C[C@H](NC(=O)c1ccc(Br)cc1F)C(=O)O)C(=O)O)c1ccc(Br)cc1F | inactive |
| COc1ccc2c(c1)/C(=C/c1cc(OC)c(OC)c(OC)c1)C(=O)N2 | active |

Exercise: # outcome recorded in this test, key = O=C1CCCCN1CCCCC#Cc1cccc(C#Cc2cccnc2)c1
Solution: inactive

Exercise: # outcome recorded in this test, key = COc1ccc(CN2C3CC2CN(c2ccc(-c4cc(OCC(C)(C)O)cn5ncc(C#N)c45)cn2)C3)cn1
Solution: inactive

Exercise: # outcome recorded in this test, key = O=C1OCC2=C1C(c1ccccc1)c1cc3c(cc1N2CCO)OCO3 (stereo not given)
Solution: inactive

Exercise: # outcome recorded in this test, key = O=C(O)[C@@H](Cc1ccc2ccccc2c1)NC(=O)n1c2ccccc2c2ccccc21
Solution: inactive

Exercise: # outcome recorded in this test, key = COc1ccc(C(=O)c2ccc([As]=O)cc2)cc1 (stereo not given)
Solution: active

Exercise: # outcome recorded in this test, key = C[C@H]1CCCC(O)C(O)[C@@H]2C[C@H](O[Si](C)(C)C(C)(C)C)C[C@H]2[C@H](O[Si](C)(C)C(C)(C)C)C(O)C(O)C(=O)O1 (stereo not given in full)
Solution: inactive

Exercise: # outcome recorded in this test, key = CCOC(=O)/C(C#N)=C\C=C(/Cl)c1ccc(Cl)cc1
Solution: inactive

* * *

Task for the reader: assign each of the following compounds its reported TGI.
Tested on: PC-3 prostate
Assay procedure: NCI tumour cell line growth inhibition, 48 h

Sample records with TGI:
| Compound | Experimental result |
| --- | --- |
| COc1cc(NC(C)=O)ccc1C(=O)NN1C(=O)/C(=C/c2ccco2)N=C1c1ccccc1 | > 50 µM |
| COc1ccc(C(=O)c2ccc([As]=O)cc2)cc1 (stereo unspecified) | 0.185 µM |
| OCc1ccc2c(c1)CC1(Cc3ccc(/C=N/O)cc3C1)C2 (stereo unspecified) | > 100 µM |

Working through the 3 compounds below one at a time, give TGI for each.
1. c1c[nH]c(CN2CCOCC2)n1
2. Cc1cc(N(CCC#N)CCC#N)ccc1/C=C(\NC(=O)/C=C/c1ccccc1)C(=O)NN
3. CN1CCN(c2cc3nsnc3c3nsnc23)CC1

Solution:
1. > 100 µM
2. > 100 µM
3. > 10 µM

Working through the 8 compounds below one at a time, give TGI for each.
1. CCC(C(=O)C(=O)OC)P1(=O)OC(C)(C)CN1C(C)(C)C (stereo unspecified)
2. C(=N\Nc1nnn(Cc2ccccc2)n1)/c1ccccc1
3. CCOC(=O)c1nc2cc(C(F)(F)F)ccc2nc1Nc1ccc(C(=O)NC(C(=O)OCC)C(=O)OCC)cc1
4. COc1ccc(N(C(=O)Nc2ccc(Cl)c(Cl)c2)C2c3cccn3C(=O)N2c2ccc(Cl)c(Cl)c2)cc1 (stereo unspecified)
5. C=C1C(=O)O[C@H]2[C@H]1CC/C(C=Nc1c(N)cc(C(F)(F)F)cc1Br)=C\CC[C@@]1(C)O[C@@H]21
6. C1=C\SS/C=C\SS/1
7. N#Cc1nc(C2CCC2)oc1N
8. COC(=O)/C(C#N)=C(/NCCN)Nc1ccccc1

Solution:
1: > 100 µM; 2: > 100 µM; 3: > 100 µM; 4: > 100 µM; 5: 3.85 µM; 6: > 100 µM; 7: > 100 µM; 8: > 100 µM

Recorded values, source PubChem BioAssay (NCI).
